- Assay Comment: Haemolytic activity in human erythrocytes assessed as induction of hemolysis at 5 mM after 30 mins relative to H202
- Format: cell-based, Erythrocyte
- Measurement Conditions: read-out: Activity
Quantity Name: hemolysis at 0.5 h, 5000 µM (%)
State the answer as a number, implicitly in %.

Worked cases, answers included:
Molecular String | hemolysis at 0.5 h, 5000 µM / %
COc1ccc2cc(-c3ccc(-c4ccc(C(=N)N)s4)s3)ccc2c1 | 11.3
N=C(N)c1ccc(-c2ccc(-c3ccc(F)cc3)o2)o1 | 66.3
N=C(N)c1ccc(-c2ccc(-c3cncc4ccccc34)s2)s1 | 4
COc1ccc(-c2ccc(-c3ccc(C(=N)N)s3)s2)cc1 | 63.7
N=C(N)c1ccc(-c2ccc(-c3cc(Cl)cc(Cl)c3)o2)o1 | 57.1

Turning to the following molecule.
Task: Would you kindly share the measured hemolysis at 0.5 h, 5000 µM for `COc1cc(-c2ccc(-c3ccc(C(=N)N)s3)s2)cc(OC)c1OC` ?
Result: 38.7

* * *

- Tested on: OVCAR-5
- Assay Comment: Antiproliferative activity against human OVCAR5 cells assessed as growth inhibition after 48 hrs by sulforhodamine B assay
- Format: functional
- Measurement Conditions: OVCAR-5, 48 h
Quantity Name: GI50 (nM)
State the answer as a number, implicitly in nM.

Worked cases, answers included:
Molecular String | Target Under Test | Quantity Name | Measured Value
N=C(N)c1ccc(-c2ccc(-c3cncc4ccccc34)s2)s1 | OVCAR-5 | GI50 | 1710
N=C(N)c1ccc(-c2ccc(-c3ccc4ccccc4c3)s2)s1 | OVCAR-5 | GI50 | 1810
N=C(N)c1ccc(-c2ccc(-c3ccccc3)o2)o1 | OVCAR-5 | GI50 | 2700
COc1ccc(-c2ccc(-c3ccc(C(=N)N)o3)o2)cc1 | OVCAR-5 | GI50 | 2430
N=C(N)c1ccc(-c2ccc(-c3cc(Cl)cc(Cl)c3)s2)s1 | OVCAR-5 | GI50 | 1960
N=C(N)c1ccc(-c2ccc(-c3ccc(F)cc3)s2)s1 | OVCAR-5 | GI50 | 1700

Turning to the following compound.
Task: Value wanted: GI50 (OVCAR-5) of entry `N=C(N)c1ccc(-c2ccc(-c3cc(Cl)cc(Cl)c3)o2)o1`
Result: 1810

* * *

- System: CAKI-1
- Assay Comment: Antiproliferative activity against human CAKI-1 cells assessed as growth inhibition after 48 hrs by sulforhodamine B assay
- Format: functional
- Measurement Conditions: CAKI-1, 48 h
Decision: GI50 beneath 2000 nM gives class 1; GI50 meeting or exceeding 2000 nM gives class 0.

Molecular String | Discrete Label
N=C(N)c1ccc(-c2ccc(-c3ccccc3)o2)o1 | class 0
COc1cc(-c2ccc(-c3ccc(C(=N)N)s3)s2)cc(OC)c1OC | class 1

Continue with the next compound.
Task: Would you kindly verify if GI50 of `N=C(N)c1ccc(-c2ccc(-c3cncc4ccccc34)s2)s1` is strictly less than 2000 nM?
Result: class 1

* * *

- Assay Comment: Antioxidant activity assessed as DPPH radical scavenging activity incubated in dark for 30 mins by spectrophotometric method relative to ascorbic acid
- Assay type: functional
Quantity Name: fold change (FC)
Answer using only a numeral; do not append any unit.

Molecular String | Quantity Name | Measured Value
N=C(N)c1ccc(-c2ccc(-c3cncc4ccccc34)s2)s1 | fold change (FC) | 0.6

Task: Would you kindly share the measured fold change (FC) for `N=C(N)c1ccc(-c2ccc(-c3ccc4ccccc4c3)s2)s1` ?
Result: 0.6

Task: Another compound: `COc1ccc(-c2ccc(-c3ccc(C(=N)N)s3)s2)cc1`
Result: 0.6
